# experimental details: NIH3T3 cell viability loss – cherry-pick, single point, cytotoxicity control for T. cruzi proliferation inhibitor project, confirmation (AID 651742);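 further: 0% = median of neutral control wells and 100% = median of positive control wells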
# stated conditions: NIH/3T3 viability, CellTiter-Glo ATP luminescence, 90 h; at 8.35 µM; active compounds read high
Out of some 5,600 compounds screened, about 780 (14%) were called active. Roughly 3% stayed inconclusive and do not appear here. Only a sample is shown.

[
  {
    "input smiles": "O=C(C[C@H]1CC[C@@H]2[C@H](COC[C@H](O)CN2Cc2ccc(Oc3ccccc3)cc2)O1)N1CCN(c2ccccc2)CC1",
    "cytotoxicity (signal decrease)": "-0.257% (inactive)"
  },
  {
    "input smiles": "C[C@@H]1CCCCO[C@@H](CN(C)Cc2ccc3c(c2)OCO3)[C@@H](C)CN([C@@H](C)CO)C(=O)c2cc(NC(=O)Nc3ccccc3)ccc2O1",
    "cytotoxicity (signal decrease)": "6.98% (inactive)"
  },
  {
    "input smiles": "COc1ccc(CN(C)C[C@H]2OCCCC[C@H](C)Oc3ccc(NC(=O)Nc4ccc5c(c4)OCO5)cc3C(=O)N([C@H](C)CO)C[C@@H]2C)cc1",
    "cytotoxicity (signal decrease)": "45.5% (active)"
  },
  {
    "input smiles": "O=C(c1ccncc1)N1CCCCN2[C@H](CO)[C@H](c3ccc(-c4ccccc4)cc3)[C@H]2C1",
    "cytotoxicity (signal decrease)": "6.21% (inactive)"
  },
  {
    "input smiles": "C[C@@H]1CCCCO[C@H](CN(C)Cc2ccccc2)[C@@H](C)CN([C@@H](C)CO)C(=O)c2cc(NC(=O)Nc3ccc(F)cc3)ccc2O1",
    "cytotoxicity (signal decrease)": "27.1% (inactive)"
  },
  {
    "input smiles": "CCCC#Cc1ccc([C@H]2[C@H](CO)N3CCCCN(C(=O)c4ccc5c(c4)OCO5)C[C@@H]23)cc1",
    "cytotoxicity (signal decrease)": "35.2% (active)"
  }
]
